- Test system: NCI-H23 lung
- ASSAY COMMENT: NCI tumour cell line growth inhibition, 48 h
EXPERIMENTAL READOUT: GI50

Q) Value lookup for GI50; key = COc1ccc(-n2sc(=O)n(Cc3ccc(COC(=O)C(C)c4ccc(CC(C)C)cc4)cc3)c2=O)cc1 (stereo unspecified)
A) 5.72 µM

Q) Name the recorded GI50 for Cc1ccc(-c2cc(/C=N/O)on2)cc1 .
A) 73.1 µM

Q) # GI50 lookup, item N#CSCC(=O)c1ccc(Cl)cc1
A) 4.27 µM

Q) # query: GI50 of entry CCOc1cc(/C=N\NC(=O)N/N=C/c2ccc(O)c(OCC)c2)ccc1O
A) 4.22 µM

Q) Suppose we examine the compound CCN1C(=O)N(CC)C2C1NN=c1s/c(=C\c3ccccc3)c(=O)n12 (stereo unspecified) ; what GI50 value has been reported?
A) 0.544 µM

Q) Find the recorded GI50 belonging to O=[N+]([O-])c1ccc(-c2ccccc2)c([As](=O)(O)O)c1 and report it.
A) 18.9 µM
